System: NCI-H322M lung
Assay: NCI-60 one-dose screen, 48 h (100 = growth as untreated, 0 = no growth, -100 = all killed)
Details: 10 µM unless noted
Compounds without any hit were thinned out: in the full panel of roughly 83,000, 20% have a hit. Active and inactive are the calls of the source. How the source made its calls: active means growth percent below 10; inactive means the rest.
quantity_name: growth

>>> print(df.to_string())
                                    molecule                     result
 0  COc1cc(/C=N/n2c(CN3CCOCC3)nc3ccccc3c2=O)cc(OC)c1OC             90% (inactive)
 1              NC(N)=NN=C(c1ccccc1)c1ccccc1           45.5% (inactive)
 2  O=S(=O)(Nc1cccc(Cl)c1)c1ccc(-c2cnc(C3CC3)o2)cc1           48.1% (inactive)
 3  O=C1/C(=C\c2c[nH]c3ccccc23)c2ccccc2N1c1c(Cl)cccc1Cl           18.8% (inactive)
 4  COc1ccc(-c2c(N)n[nH]c2-c2ccc(Cl)cc2O)cc1OC           92.4% (inactive)
 5  COc1cc(/C=C/C(=O)c2cccc(-n3cc(-c4ccccc4)[nH]c3=O)c2)ccc1O           85.4% (inactive)
 6        Cn1cc2c(c1)-c1nc(Nc3ccccc3)ncc1CC2           52.9% (inactive)
 7  O=C(NC(Cc1nnc2n(Cc3ccccc3)c(=O)c3c4c(sc3n12)CCCC4)c1ccc(Cl)cc1)c1ccccc1 (stereo unspecified)            108% (inactive)
 8  Cn1c(I)c(C#C[Si](C)(C)C)c(=O)n(C(=O)c2ccccc2)c1=O           94.9% (inactive)
 9   CCN(CC)c1ccc(C(=O)c2ccc(N(CC)CC)cc2)cc1           54.7% (inactive)
10  COc1cccc(-c2nc3sccn3c2/C=C/C(=O)c2ccc(C(F)(F)F)cc2)c1           87.5% (inactive)
11  Cc1c(C)c2c(c(C)c1OCC(=O)O)CC[C@@](C)(CCC[C@@H](C)CCC[C@@H](C)CCCC(C)C)O2   43.3% [50 µM] (inactive)
12  O=C(COc1ccc(/C=C2\Oc3ccccc3C2=O)cc1)Nc1nc2c(s1)CCCC2            115% (inactive)
13   COc1nc2c(c(=O)n1C)CN(c1ccccc1)C(=O)CN2C  62.1% [100 µM] (inactive)
14  COc1ccc(NC(=O)CSc2nc(C)c(C(C)=O)n2-c2ccc([N+](=O)[O-])cc2)cc1           92.7% (inactive)
15                      O=Cc1ccc(O)c2ncccc12           97.1% (inactive)
16  COc1cccc(-c2nn(-c3ccccc3)cc2-c2ccnc(NCCCNC(=O)Nc3ccc(Cl)c(Cl)c3)c2)c1           24.3% (inactive)
17     COc1cc(N2C(=O)c3nccnc3C2=O)cc(OC)c1OC           99.7% (inactive)
18    CC/C=C1/C(=O)C=C[C@@H]1C/C=C\CCCC(=O)O            113% (inactive)
19  Cc1c(C(=O)OC(=NC2CCCCC2)NC2CCCCC2)sc2c1c(=O)nc1c(C#N)n[nH]n12            115% (inactive)
20  O=[N+]([O-])c1ccc(C2CC(c3ccccc3)=Nc3ccccc3S2)cc1 (stereo unspecified)            107% (inactive)

###

Test system: MDA-MB-231 breast
Experiment: NCI-60 one-dose screen, 48 h (100 = growth as untreated, 0 = no growth, -100 = all killed)
Conditions: 10 µM unless noted
About 83,000 compounds went through this panel and 20% of them were active in at least one assay; those are over-represented in the sample as a whole.
The compounds listed here are annotated with their growth.
quantity_name: growth (%)

                                   compound  result_number
0  COc1ccc(-c2[nH]c(=S)n(C(CC3(C)NCC(=O)N3n3c(-c4ccccc4)cc(C)nc3=S)c3ccc(OC)cc3)c(=O)c2Br)cc1 (stereo not given)           79.9
1     NS(=O)(=O)c1cnccc1Sc1ccncc1S(N)(=O)=O            111
2                 CCN(CC)Cc1cccc(C(=O)OC)c1            100
3           COc1ccc(N=Nc2ccc(O)c(=O)cc2)cc1           17.5
4      Nc1n[nH]c(-c2cc(Cl)ccc2O)c1-c1ccccc1             78
5  C[C@@H]1N=C(c2ccc3ccccc3n2)Nc2nc3ccccn3c2C1=O           79.4
6  N#Cc1nc2c(S(=O)(=O)c3ccc(Cl)cc3)c(N)n(Nc3cccc(Cl)c3)c2nc1C#N           58.8
7  O=C(NCCc1ccc(O)c(O)c1)C12CC3CC(CC(C3)C1)C2           85.5
8  Cn1c(I)c(C#C[Si](C)(C)C)c(=O)n(C(=O)c2ccccc2)c1=O           64.2
9  COc1cc(/C=N/NC(=O)Cn2c(C(C)C)nc3ccccc32)ccc1O           95.5

###

Tested on: K-562 leukemia
Experiment: NCI-60 one-dose screen, 48 h
Conditions: 10 µM unless noted
Description: Cells are grown in 96 well plates and exposed to the test compound for 48 hours. Compounds are tested at a single concentration, which is 10^-5 M for most compounds. The reported endpoint is percent growth (GI% or GIPRCNT), where numbers from 0 - 100% represent growth inhibition, and numbers from -100% - 0 represent cell death. For example, a value of 40 represents 60% growth inhibition. A value of 0 means no net growth occurred over the course of the experiment. […]
Compounds without any hit were thinned out: in the full panel of roughly 83,000, 20% have a hit. Activity calls are given as the source filed them. The calls were made as follows: active = growth percent below 10; inactive = the rest.
Classes used: active, inactive

                                    compound   target_entity  category_label
 0  CNC(=O)CCN1CCN(CC/C=C2\c3ccccc3Sc3ccc(Cl)cc32)CC1  K-562 leukemia        inactive
 1  COC(=O)[C@]12CC[C@@H](C)[C@H](C)[C@@H]1C1=CC[C@@H]3[C@@]4(C)C(C=O)=C[C@@](C)(COC(C)=O)C4=CC[C@@]3(C)[C@]1(C)CC2  K-562 leukemia          active
 2  CN(C)c1ccc(-c2cc(-c3ccc(Nc4nc(Nc5ccc(Cl)cc5)nc(Nc5ccc(Cl)cc5)n4)cc3)no2)cc1  K-562 leukemia        inactive
 3  C(=N\Nc1ncc(-c2cc3cc4c(cc3o2)OCO4)s1)/c1ccco1  K-562 leukemia        inactive
 4              OC(COc1ccccc1Cl)COc1ccccc1Cl  K-562 leukemia        inactive
 5   Nc1cc2c3c(cccc3c1)C(=O)N(CCN1CCCC1)C2=O  K-562 leukemia        inactive
 6    COc1ccc2nc(NNC(=O)c3cnccn3)c3cccn3c2c1  K-562 leukemia          active
 7  C[C@@H]1N=C(c2ccc3ccccc3n2)Nc2nc3ccccn3c2C1=O  K-562 leukemia        inactive
 8  COc1ccc(/C=c2\nc3n(-c4ccccc4)c4nc5c6c(sc5c(=N)n4n-3c2=O)CCCC6)cc1  K-562 leukemia        inactive
 9  COc1ccc(-c2cc(-c3cc(OC)ccc3OC)nc(SCC(=O)c3ccccc3)c2C#N)cc1  K-562 leukemia        inactive
10  N#C/C(=C\c1ccc(Br)cc1)n1nnc2cc(F)c(F)cc21  K-562 leukemia          active
11  CC/C=C\CCC/C=C1/C(=O)C=C[C@@H]1C/C=C\CCCC(=O)O  K-562 leukemia          active
12  O=C(c1ccc(Nc2nccc(NCCCCNc3ccnc4cc(Cl)ccc34)n2)cc1)N1CCCCC1  K-562 leukemia          active
13          NC(N)=Nc1nc2ccccc2n2c1nc1ccccc12  K-562 leukemia        inactive
14  O=C(Nc1cccc2c(O)c(N=Nc3ccc(S(=O)(=O)Nc4nccs4)cc3)cc(N=Nc3ccc(S(=O)(=O)Nc4nccs4)cc3)c12)C(Cl)Cl  K-562 leukemia        inactive
15  CCOc1ccccc1-n1c(CN2CCN(C(=O)COc3ccc(CNCCCCCCN4C5CCCC4CC(OC(=O)Nc4cc(C)ccc4OC)C5)cc3)CC2)nc2ccccc2c1=O (stereo not drawn)  K-562 leukemia          active
16  COc1ccc(-c2cc(-c3ccc(Nc4nc(Nc5ccc(Cl)cc5)nc(Nc5ccc(Cl)cc5)n4)cc3)nc(N)c2C#N)cc1  K-562 leukemia        inactive
17  COc1cccc(/C=C/C(=O)c2c(C)nc3ccccc3c2/C=C/c2ccc(C)cc2)c1OC  K-562 leukemia        inactive
18          Cn1c(=O)c2c(nc(Cl)n2CCl)n(C)c1=O  K-562 leukemia        inactive
19  COc1cc2c(cc1-c1c(C)noc1C)ncc1nc(C3CCCCC3)n(C3CCC(OC(F)F)CC3)c12 (stereo not drawn)  K-562 leukemia        inactive
20  COc1ccc2c(c1)C(=O)/C(=C/c1cccc(OCC(=O)Nc3nc(C)c(C)s3)c1)O2  K-562 leukemia          active
21  CC(=O)OC1CCC2(C)C(=CC3C4CCC(=O)C4(C)CCC32)C1 (stereo not drawn)  K-562 leukemia        inactive
22  Cn1c(-c2c(N)n(Cc3cccnc3)c3nc(C#N)c(C#N)nc23)nc2ccccc21  K-562 leukemia        inactive
23  CCN(CC)CCCC(C)Nc1c2ccc(Cl)cc2nc2ccc(O)cc12 (stereo not drawn)  K-562 leukemia          active
24  O=C1Nc2ccc(F)cc2C12Nc1cc(Cl)ccc1S2 (stereo not drawn)  K-562 leukemia        inactive
25                    O=c1ssc(Cl)c1-c1ccccc1  K-562 leukemia        inactive
26  COc1ccc2c(c1)C(=O)/C(=C/c1ccc(OCC(=O)Nc3nccs3)cc1)O2  K-562 leukemia          active
27  COc1cccc(-c2nn(-c3ccccc3)cc2-c2ccnc(NCCCNC(=O)c3cccc(C(F)(F)F)c3)c2)c1  K-562 leukemia        inactive
28  O=C(NCCCNc1cc(-c2cn(-c3ccccc3)nc2-c2cccc(O)c2)ccn1)c1ccccc1  K-562 leukemia          active
29  CCCCn1c(=O)c2c(nc3n2CCCN3CCc2ccc(OCC(=O)NCCN(CC)CC)cc2)n(CCCC)c1=O  K-562 leukemia          active
30  COC(=O)/C=C1\S/C(=N\NS(=O)(=O)c2ccc(C)cc2)N(c2ccccc2)C1=O  K-562 leukemia        inactive
31  Cc1nn(-c2ccccc2)c(Oc2ccc(Cl)cc2)c1/C=N\N=c1/sc2ccccc2n1C  K-562 leukemia        inactive
32  Cc1cc(O)c(C2=NN(c3ccc(S(N)(=O)=O)cc3)C(c3ccccc3Cl)C2)cc1Cl (stereo not drawn)  K-562 leukemia          active
33  Cc1c(C)c2c(c(C)c1OCC(=O)O)CC[C@@](C)(CCC[C@@H](C)CCC[C@@H](C)CCCC(C)C)O2  K-562 leukemia          active
34  CN(C)c1ccc(/C=C/C(=O)c2cccc(Nc3nc(Nc4ccccc4)nc(Nc4ccccc4)n3)c2)cc1  K-562 leukemia        inactive
35  CCOc1c(C#N)nnc2c(C#N)c(NC(=O)c3ccccc3)nn12  K-562 leukemia        inactive
36       Cc1cc(C)c2c(-c3nnc(N)s3)cc(=O)oc2c1  K-562 leukemia        inactive
37  CCOC(=O)c1ccc(N2NC(=O)/C(=C/c3ccc([N+](=O)[O-])o3)C2=O)cc1  K-562 leukemia        inactive
